tested-system: T1, AahII toxin of Androctonus australis hector (Androctonus australis hector, UniProt P01484 20-83)
T1 construct: mature; also called Aahll
T1 sequence: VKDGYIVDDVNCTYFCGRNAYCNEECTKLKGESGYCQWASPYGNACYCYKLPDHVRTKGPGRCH
protocol-notes: SPR (BIAcore), AahII immobilised on CM5 chip, Nb in mobile phase

binder: NbAahII38 (VHH, also called cluster H) VHH: DVQLVESGGGLVQPGGSLRLSCAASGFTFSNYVMSWVRQAPGKGLEWVSGINHGGGIQDYADSVKGRFTISRDNAKNTLYLQLNSLKIEDTAMYYCVRASHYRDYGPTIYSWGQGTQVTVSS
Kd: 76 nM

binder: NbAahII10 (VHH, also called NbAahIIlO; NbAahII lO) VHH: QVQLVESGGGSVQAGGSLKLSCAASGYFYSSNYCLGWFRQAPGKEREGVAQINIAPGRIYYADSVKGRFTISRDNAKNTVYLQMDSLKPEDTAIYYCASTAGNMYYGLRGPADFDYWGQGTQVTVSS
Kd: 0.49 nM
